# Target entity: T1, monovalent hVISTA-ECD (human VISTA extracellular domain with His tail) (human, UniProt Q9H7M9 33-193)
# T1 construct: analyte flowed over captured antibody; also called huVISTA-His
# T1 sequence (Q9H7M9 other isoform, or with tags, fused parts or gaps limits assumed): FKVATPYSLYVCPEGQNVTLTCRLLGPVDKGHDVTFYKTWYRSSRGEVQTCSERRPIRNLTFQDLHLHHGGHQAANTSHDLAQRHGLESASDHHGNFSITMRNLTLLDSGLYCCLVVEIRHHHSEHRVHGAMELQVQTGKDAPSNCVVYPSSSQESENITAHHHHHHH
# Assay overview: SPR, pH 7.4
Parameter: pKd
# log scale: pKd equals minus log10 of the concentration in mol/L

>  <Binder>
P1-065325 (41F11_VH_D31E/Y50W/S55E/A60H/Y100E VK_A64G) (antibody, V domains shown, Kabat positions; also called P1-065325-1) VH: QVQLVESGGGLVKPGGSLRLSCAASGFTFSEYYMSWIRQAPGKGLEWVSWISNSGEPIYYHDSVKGRFTISRDNAKNSLYLQMNSLRAEDTAVYYCARDLPGWEFDLWGRGTLVTVSS VL: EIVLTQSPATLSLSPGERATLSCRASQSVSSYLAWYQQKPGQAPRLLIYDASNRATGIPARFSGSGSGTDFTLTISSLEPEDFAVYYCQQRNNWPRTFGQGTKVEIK

>  <pKd>
9.59

$$$$

Exam item: Given the binder P1-064510 (41F11_Vk_A25E/V29D/A64G/R91T) (antibody, V domains shown, also called P1-064510-1) VH: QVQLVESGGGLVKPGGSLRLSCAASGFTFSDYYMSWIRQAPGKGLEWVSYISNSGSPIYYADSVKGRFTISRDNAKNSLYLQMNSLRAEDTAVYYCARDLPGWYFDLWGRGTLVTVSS VL: EIVLTQSPATLSLSPGERATLSCRESQSDSSYLAWYQQKPGQAPRLLIYDASNRATGIPARFSGSGSGTDFTLTISSLEPEDFAVYYCQQTNNWPRTFGQGTKVEIK , what is its reported pKd?
Marked response: 7.07

Exam item: # input binder: P1-064528 (41F11_VH_D31E/Y50W/S55E/L96E/Y100E) (antibody, V domains shown, Kabat positions; also called P1-064528-1) VH: QVQLVESGGGLVKPGGSLRLSCAASGFTFSEYYMSWIRQAPGKGLEWVSWISNSGEPIYYADSVKGRFTISRDNAKNSLYLQMNSLRAEDTAVYYCARDEPGWEFDLWGRGTLVTVSS VL: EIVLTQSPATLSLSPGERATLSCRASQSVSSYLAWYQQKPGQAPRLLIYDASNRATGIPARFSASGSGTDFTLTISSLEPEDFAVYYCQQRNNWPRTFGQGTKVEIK ; wanted: its pKd
Marked response: 9.11

Exam item: Entry P1-065329 (41F11_VH_D31E/S35Y/Y50W/S55E/A60H/Y100E/F100aG VK_A64G) (antibody, V domains shown, Kabat positions; also called P1-065329-1) VH: QVQLVESGGGLVKPGGSLRLSCAASGFTFSEYYMYWIRQAPGKGLEWVSWISNSGEPIYYHDSVKGRFTISRDNAKNSLYLQMNSLRAEDTAVYYCARDLPGWEGDLWGRGTLVTVSS VL: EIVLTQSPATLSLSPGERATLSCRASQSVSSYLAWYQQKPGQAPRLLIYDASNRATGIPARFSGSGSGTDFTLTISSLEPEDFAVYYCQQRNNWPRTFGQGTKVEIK : reported pKd = ?
Marked response: 6.32

Exam item: Fill in: pKd of P1-064486 (41F11_VH_F100aG) (antibody, V domains shown, Kabat positions; also called P1-064486-1) VH: QVQLVESGGGLVKPGGSLRLSCAASGFTFSDYYMSWIRQAPGKGLEWVSYISNSGSPIYYADSVKGRFTISRDNAKNSLYLQMNSLRAEDTAVYYCARDLPGWYGDLWGRGTLVTVSS VL: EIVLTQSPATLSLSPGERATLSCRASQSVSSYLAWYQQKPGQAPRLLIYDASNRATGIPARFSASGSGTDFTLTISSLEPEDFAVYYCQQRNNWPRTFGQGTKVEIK is ___
Marked response: 7.82
